Test system: HepG2
Experiment: Antitumor activity against human HepG2 cells assessed as inhibition of cell viability by MTT assay
Format: functional, cell-based
property-measured: IC50 (µM)

Here is how some compounds turned out for IC50.
Cc1cc(NC2=NC(=O)CS2)no1 | 23.8
Cc1cc(NC(=O)CN2CCN(c3ccccc3)CC2)no1 | 35
CC(C)(C)c1cc(NC2=NC(=O)/C(=C\c3ccc4ccccc4c3)S2)no1 | 79.2
CCN1CCN(CC(=O)Nc2cc(C)on2)CC1 | 19.5
CC(C)(C)c1cc(NC2=NC(=O)CS2)no1 | 18.3
Cc1cc(NC2=NC(=O)/C(=C\c3ccc(Cl)c(Cl)c3)S2)no1 | 45.2
Cc1cc(NC2=NC(=O)/C(=C\c3ccc(Br)s3)S2)no1 | 32.8
Cc1cc(NC(=O)CCN2CCOCC2)no1 | 71.5
Cc1cc(NC(=O)CCCl)no1 | 62
CC(C)(C)c1cc(NC2=NC(=O)/C(=C\c3ccco3)S2)no1 | 68.2

A: Cc1cc(NC(=O)CCN2CCN(c3ccccc3)CC2)no1
B: Cc1cc(NC2=NC(=O)/C(=C\c3c(F)cccc3Cl)S2)no1
Prompt: Record comparison, field IC50: mark the lower of A and B . I would appreciate it if you answered with the label of your choice.
Response: B
(B: 31.1 µM, A: 51.8 µM)

----------
Test system: HepG2
Assay: Antitumor activity against human HepG2 cells assessed as inhibition of cell viability by MTT assay
Assay type: functional, cell-based
Each entry below carries its recorded IC50.

Prompt: Item `Cc1cc(NC2=NC(=O)/C(=C\c3ccc4ccccc4c3)S2)no1` has what recorded IC50?
Response: > 100 µM

Prompt: Query (compound): `Cc1cc(NC(=O)CN2CCOCC2)no1` ; field requested: IC50
Response: > 100 µM

Prompt: What does the data say about its IC50? Entry: `Cc1cc(N2C(=O)c3c(Cl)c(Cl)c(Cl)c(Cl)c3C2=O)no1`
Response: > 100 µM

Prompt: Which IC50 value is on record for `CN1CCN(CCC(=O)Nc2cc(C(C)(C)C)on2)CC1` ?
Response: > 100 µM

Prompt: I'd like to know its IC50. The compound in question is `CC(C)(C)c1cc(NC2=NC(=O)/C(=C\c3ccc(Cl)c(Cl)c3)S2)no1`
Response: 43.8 µM

Prompt: Look at this compound and give its reported IC50. `Cc1ccc(/C=C2/SC(Nc3cc(C)on3)=NC2=O)cc1`
Response: > 100 µM
